Target: furin, P09958;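 also: purified furin at 1:10 enzyme:substrate in 50 mM HEPES pH 7.5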
Sequence (P09958 whole entry): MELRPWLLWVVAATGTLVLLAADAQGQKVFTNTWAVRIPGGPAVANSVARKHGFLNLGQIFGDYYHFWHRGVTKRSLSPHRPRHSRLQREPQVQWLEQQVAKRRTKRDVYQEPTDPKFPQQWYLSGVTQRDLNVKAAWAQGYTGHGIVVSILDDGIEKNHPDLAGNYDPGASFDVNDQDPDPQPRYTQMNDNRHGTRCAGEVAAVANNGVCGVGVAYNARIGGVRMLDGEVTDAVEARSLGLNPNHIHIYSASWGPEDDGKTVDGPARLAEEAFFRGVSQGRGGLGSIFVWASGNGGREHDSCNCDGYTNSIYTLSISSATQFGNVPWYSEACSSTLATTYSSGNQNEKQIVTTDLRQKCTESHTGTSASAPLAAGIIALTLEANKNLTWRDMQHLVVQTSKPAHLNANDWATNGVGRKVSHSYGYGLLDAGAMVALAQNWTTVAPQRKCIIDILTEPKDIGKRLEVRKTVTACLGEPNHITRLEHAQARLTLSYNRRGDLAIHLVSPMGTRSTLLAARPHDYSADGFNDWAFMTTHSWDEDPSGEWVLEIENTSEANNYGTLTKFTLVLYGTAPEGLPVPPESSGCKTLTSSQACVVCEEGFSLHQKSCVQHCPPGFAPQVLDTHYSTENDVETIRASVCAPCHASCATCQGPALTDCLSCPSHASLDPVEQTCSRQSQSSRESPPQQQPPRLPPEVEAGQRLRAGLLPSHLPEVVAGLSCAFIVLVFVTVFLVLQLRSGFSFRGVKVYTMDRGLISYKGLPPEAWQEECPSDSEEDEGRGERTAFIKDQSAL
Assay: furin cleavage Z-score vs untreated control; higher = more cleavage, active = 3.5 or more, inactive = 1 or less, 8 variable residues between constant flanks
Conditions: 30 min
The other results are listed elsewhere or left out. How many sequences the whole screen found active is unknown.
measured.property: furin cleavage Z-score

{"columns": ["sequence.code", "meas.value"],
 "data": [
  ["CAGVLTTSCGAGNASASA [HC1512]", -0.869],
  ["CARKRRSVNPAGNASASA [FS-2702]", 9.6],
  ["CARVERFKRDAGNASASA [FS-1567]", 8.4],
  ["CARTKRAQSPAGNASASA [FS-2824]", 5.31],
  ["CAGIPFVSCQAGNASASA [HC1163]", -1.36],
  ["CARDRRRLEQAGNASASA [FS-2483]", -0.511],
  ["CADKRRSVRIAGNASASA [FS-1669]", 0.74],
  ["CARKLRGETVAGNASASA [FS-2969]", -0.18],
  ["CASRPCSAHLAGNASASA [HC2493]", 0.79],
  ["CAGPIRLKRDAGNASASA [FS-593]", 10.9],
  ["CAVERRSVNKAGNASASA [FS-1814]", -0.108],
  ["CANKRRSVRFAGNASASA [FS-833]", 8.22],
  ["CARSVRLGGPAGNASASA [FS-1795]", -1.33],
  ["CAKQHRLKRYAGNASASA [FS-1349]", 10],
  ["CASRSRRRRRAGNASASA [FS-1490]", 7.6]
]}
